assay.procedure: NCI Yeast Anticancer Drug Screen. Data for the sgs1 mgt1 strain (AID 161);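 further: 0% = growth of cultures given vehicle only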
measurement.conditions: S. cerevisiae sgs1 mgt1 strain, at 50.0 µM, stronger effect = higher value
Compounds without any hit were thinned out: in the full panel of roughly 79,000, 15% have a hit.
Field: growth inhibition. Provide a value for each of the compounds that follow.
Quick note: give the figure in %, leave out the unit.

growth inhibition in this record for COC1(C)O[C@@]2(C)c3ccccc3C(=O)[C@@]2(c2ccccc2)O1 (stereo partly specified) : 13.1

growth inhibition in this record for N[N+]1(CCS(N)(=O)=O)CCOCC1 : -0.9

growth inhibition in this record for CCCC(CN1CCCCC1)C(OC(=O)c1ccc(N)cc1)C(F)(F)F (stereo unspecified) : 24.1

growth inhibition in this record for COCCOC(=O)c1ccccc1O : 13.8

growth inhibition in this record for CN(C)CCSc1n[nH]c(=O)[nH]c1=O : -7.35

growth inhibition in this record for CCCCS(=O)(=O)c1ccc(Cl)cc1 : -4.45

growth inhibition in this record for CC(CN1CCCCC1)SSC(C)CN1CCCCC1 (stereo unspecified) : 27

growth inhibition in this record for C[C@@H]1C(=O)OCC2=C3C[C@@H](CC[C@@]3(C)C=CC2=O)[C@H](C)C(=O)OCC2=C3C[C@H]1CC[C@@]3(C)C=CC2=O : -1.35

growth inhibition in this record for CC(=O)NC(C)(C)C1CCC(C)CC1 (stereo unspecified) : 1.55

growth inhibition in this record for O=C1CCC(=O)N1C(c1ccccc1)(c1ccccc1)N1C(=O)CCC1=O : -2

growth inhibition in this record for CC(C)CCCC(C)C1CCC2C3C(O)CC4CCCCC4(C)C3CCC12C (stereo unspecified) : 98
